assay metric: melting point

compound="CCCCOc1cc(/C=C/C(=O)NCCc2cc(C(C)(C)C)c(O)c(C(C)(C)C)c2)cc(OCCCC)c1O [Example 1]" reported_measurement="82 to 85 °C"
compound="CCCCCOc1cc(/C=C/C(=O)N2CCN(c3ccc(NC(=N)c4ccc[nH]4)cc3)CC2)cc(OCCCCC)c1O [Example 23]" reported_measurement="109 to 116 °C"
compound="CCC(CC)Oc1cc(/C=C/C(=O)NCc2cc(C(C)(C)C)c(O)c(C(C)(C)C)c2)cc(OC(CC)CC)c1O [Example 4]" reported_measurement="75 to 80 °C"
compound="CC(C)(C)c1cc(/C=C/C(=O)N2CCN(c3ccc(NC(=N)c4ccc[nH]4)cc3)CC2)cc(C(C)(C)C)c1O [Example 21]" reported_measurement="149 to 167 °C"
